target: T1, Human CD137 ECD (human); test: SPR, vs parent H183/L072
T1 construct: also called 4-1BB
T1 sequence (chain, as listed by the source limits assumed): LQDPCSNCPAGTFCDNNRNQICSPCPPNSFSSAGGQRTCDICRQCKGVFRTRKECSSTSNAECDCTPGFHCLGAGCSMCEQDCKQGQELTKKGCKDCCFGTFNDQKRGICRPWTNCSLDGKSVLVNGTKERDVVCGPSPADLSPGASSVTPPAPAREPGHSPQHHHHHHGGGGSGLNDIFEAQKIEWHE
Reported fold change of affinity is given for each of the following binders.
measure: fold change of affinity

[[record]]
binder = "dBBDu183H A98S / dBBDu072L (antibody, name in Kabat numbering, V domains shown, as m1, one VH change) VH: QVQLVESGGGLVQPGRSLRLSCAASGFTFSNAWMHWVRQAPGKGLEWVAQIKDKGNAYAAYYAPSVKGRFTISRDDSKNSIYLQMNSLKTEDTAVYYCHYVHYSSASTVLPAFGVDAWGQGTTVTVSS VL: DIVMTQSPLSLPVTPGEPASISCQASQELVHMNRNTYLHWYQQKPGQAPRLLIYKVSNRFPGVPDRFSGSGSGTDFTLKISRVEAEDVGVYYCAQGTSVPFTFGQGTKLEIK"
measure = "fold change of affinity"
endpoint_result = "0.3 fold"

[[record]]
binder = "dBBDu183H V100cK / dBBDu072L (antibody, name in Kabat numbering, V domains shown, as m1, one VH change) VH: QVQLVESGGGLVQPGRSLRLSCAASGFTFSNAWMHWVRQAPGKGLEWVAQIKDKGNAYAAYYAPSVKGRFTISRDDSKNSIYLQMNSLKTEDTAVYYCHYVHYASASTKLPAFGVDAWGQGTTVTVSS VL: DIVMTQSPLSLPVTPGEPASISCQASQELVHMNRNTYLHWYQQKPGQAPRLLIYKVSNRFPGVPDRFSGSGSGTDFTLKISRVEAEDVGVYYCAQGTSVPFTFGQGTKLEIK"
measure = "fold change of affinity"
endpoint_result = "0.5 fold"

[[record]]
binder = "dBBDu183H H96Y / dBBDu072L (antibody, name in Kabat numbering, V domains shown, as m1, one VH change) VH: QVQLVESGGGLVQPGRSLRLSCAASGFTFSNAWMHWVRQAPGKGLEWVAQIKDKGNAYAAYYAPSVKGRFTISRDDSKNSIYLQMNSLKTEDTAVYYCHYVYYASASTVLPAFGVDAWGQGTTVTVSS VL: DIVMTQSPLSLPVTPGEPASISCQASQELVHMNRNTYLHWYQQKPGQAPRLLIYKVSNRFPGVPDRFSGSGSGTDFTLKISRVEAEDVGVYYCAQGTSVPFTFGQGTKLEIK"
measure = "fold change of affinity"
endpoint_result = "3.3 fold"

[[record]]
binder = "dBBDu183H P61V / dBBDu072L (antibody, name in Kabat numbering, V domains shown, as m1, one VH change) VH: QVQLVESGGGLVQPGRSLRLSCAASGFTFSNAWMHWVRQAPGKGLEWVAQIKDKGNAYAAYYAVSVKGRFTISRDDSKNSIYLQMNSLKTEDTAVYYCHYVHYASASTVLPAFGVDAWGQGTTVTVSS VL: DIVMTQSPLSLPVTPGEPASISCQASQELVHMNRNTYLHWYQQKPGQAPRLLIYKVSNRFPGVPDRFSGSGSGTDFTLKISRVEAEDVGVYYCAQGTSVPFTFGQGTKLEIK"
measure = "fold change of affinity"
endpoint_result = "0.6 fold"

[[record]]
binder = "dBBDu183H V100cE / dBBDu072L (antibody, name in Kabat numbering, V domains shown, as m1, one VH change) VH: QVQLVESGGGLVQPGRSLRLSCAASGFTFSNAWMHWVRQAPGKGLEWVAQIKDKGNAYAAYYAPSVKGRFTISRDDSKNSIYLQMNSLKTEDTAVYYCHYVHYASASTELPAFGVDAWGQGTTVTVSS VL: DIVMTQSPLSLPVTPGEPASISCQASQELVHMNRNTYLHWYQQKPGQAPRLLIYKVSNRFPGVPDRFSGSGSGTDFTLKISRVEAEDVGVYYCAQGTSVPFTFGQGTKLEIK"
measure = "fold change of affinity"
endpoint_result = "0.5 fold"

[[record]]
binder = "dBBDu183H G65R / dBBDu072L (antibody, name in Kabat numbering, V domains shown, as m1, one VH change) VH: QVQLVESGGGLVQPGRSLRLSCAASGFTFSNAWMHWVRQAPGKGLEWVAQIKDKGNAYAAYYAPSVKRRFTISRDDSKNSIYLQMNSLKTEDTAVYYCHYVHYASASTVLPAFGVDAWGQGTTVTVSS VL: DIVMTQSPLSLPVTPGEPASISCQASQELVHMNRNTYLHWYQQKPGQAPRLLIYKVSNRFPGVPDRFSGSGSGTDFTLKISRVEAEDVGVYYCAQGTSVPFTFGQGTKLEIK"
measure = "fold change of affinity"
endpoint_result = "1.1 fold"

[[record]]
binder = "dBBDu183H F100gT / dBBDu072L (antibody, name in Kabat numbering, V domains shown, as m1, one VH change) VH: QVQLVESGGGLVQPGRSLRLSCAASGFTFSNAWMHWVRQAPGKGLEWVAQIKDKGNAYAAYYAPSVKGRFTISRDDSKNSIYLQMNSLKTEDTAVYYCHYVHYASASTVLPATGVDAWGQGTTVTVSS VL: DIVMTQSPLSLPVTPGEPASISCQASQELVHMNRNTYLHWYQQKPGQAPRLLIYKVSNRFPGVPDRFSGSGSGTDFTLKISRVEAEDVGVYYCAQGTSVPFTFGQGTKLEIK"
measure = "fold change of affinity"
endpoint_result = "0.7 fold"

[[record]]
binder = "dBBDu183H P100eR / dBBDu072L (antibody, name in Kabat numbering, V domains shown, as m1, one VH change) VH: QVQLVESGGGLVQPGRSLRLSCAASGFTFSNAWMHWVRQAPGKGLEWVAQIKDKGNAYAAYYAPSVKGRFTISRDDSKNSIYLQMNSLKTEDTAVYYCHYVHYASASTVLRAFGVDAWGQGTTVTVSS VL: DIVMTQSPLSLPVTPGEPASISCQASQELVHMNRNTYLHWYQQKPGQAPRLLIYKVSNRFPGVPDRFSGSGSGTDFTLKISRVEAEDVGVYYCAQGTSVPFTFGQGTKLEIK"
measure = "fold change of affinity"
endpoint_result = "0.3 fold"

[[record]]
binder = "dBBDu183H H93N / dBBDu072L (antibody, name in Kabat numbering, V domains shown, as m1, one VH change) VH: QVQLVESGGGLVQPGRSLRLSCAASGFTFSNAWMHWVRQAPGKGLEWVAQIKDKGNAYAAYYAPSVKGRFTISRDDSKNSIYLQMNSLKTEDTAVYYCNYVHYASASTVLPAFGVDAWGQGTTVTVSS VL: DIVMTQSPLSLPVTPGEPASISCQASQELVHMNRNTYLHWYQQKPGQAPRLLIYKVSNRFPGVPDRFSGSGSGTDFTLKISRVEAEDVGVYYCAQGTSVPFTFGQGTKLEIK"
measure = "fold change of affinity"
endpoint_result = "0.1 fold"

[[record]]
binder = "dBBDu183H G65Y / dBBDu072L (antibody, name in Kabat numbering, V domains shown, as m1, one VH change) VH: QVQLVESGGGLVQPGRSLRLSCAASGFTFSNAWMHWVRQAPGKGLEWVAQIKDKGNAYAAYYAPSVKYRFTISRDDSKNSIYLQMNSLKTEDTAVYYCHYVHYASASTVLPAFGVDAWGQGTTVTVSS VL: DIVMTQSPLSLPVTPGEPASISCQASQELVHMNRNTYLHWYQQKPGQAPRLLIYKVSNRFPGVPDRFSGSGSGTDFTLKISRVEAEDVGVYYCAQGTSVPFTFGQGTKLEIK"
measure = "fold change of affinity"
endpoint_result = "1.3 fold"

